# System: HL-60(TB) leukemia
# assay.name: NCI-60 one-dose screen, 48 h
# assay.conditions: 10 µM unless noted
Compounds without any hit were thinned out: in the full panel of roughly 83,000, 20% have a hit. The source made the active and inactive calls. The calls were made as follows: active = growth percent below 10; inactive = the rest.
Outcome field: choose from true (active), false (inactive)

query: Which outcome did this test record for the molecule CCOC(=O)c1c(SC)nn(-c2cc(=O)[nH]c3ccc(Br)cc23)c1N ?
result: false

query: Which outcome did this test record for the molecule Cc1c(-n2nnc(-c3nc4ccccc4s3)c2N)c(=O)n(-c2ccccc2)n1C ?
result: false

====

# Tested on: HL-60(TB) leukemia
# assay.name: NCI-60 one-dose screen, 48 h (100 = growth as untreated, 0 = no growth, -100 = all killed)
# assay.conditions: 10 µM unless noted
Compounds without any hit were thinned out: in the full panel of roughly 83,000, 20% have a hit.
Give measured growth for each item. Keep answers brief.
Give bare numbers, in %.

c1cnc2c(-c3nc4ccc5[nH]ncc5c4c4c3CCCC4)c[nH]c2c1 : 41.5
O=C1c2c(c3c4ccc(Br)cc4oc3c3[nH]c4ccccc4c23)C(=O)N1O : 25
N#CCCN1CCN(CCC#N)C1=S : 129

For every record below, what is its growth?
1. CCOc1ccc(NC(=O)CSc2oc(-c3ccccc3)nc2S(=O)(=O)c2ccc(F)cc2)cc1
2. CCN1C(=O)N(c2ccccc2)C2NN=c3s/c(=C4\C(=O)N(C(C)C)c5ccccc54)c(=O)n3C21 (configuration not stated)
3. NC1=NN(c2ccccc2)C(=O)/C1=C/c1ccc(Cl)cc1
4. COc1cc(-c2cc(-c3nc4ccccc4[nH]3)[nH]n2)cc(OC)c1OC
5. CCCCn1cnc2c(=O)[nH]cnc21
6. FC(F)(F)c1ccc2c(c1)N(CCCN1CCN(C3CC3)CC1)c1ccccc1S2
7. O=c1c(CNc2ccc(S(=O)(=O)Nc3nccs3)cc2)coc2ccccc12

result:
65.2
-16.1
104
-22.9
108
25.6
89.6

For every record below, what is its growth?
1. COc1ccc(C(=O)COc2ccc(/C=C3\Oc4ccccc4C3=O)cc2)cc1
2. COc1ccc(C2=C(c3cc(OC)c(OC)c(OC)c3)C(=O)CC2)cc1
3. N#C/C(=N\Nc1ccc(Cl)cc1)C(=O)C1CC1
4. Cc1cc(=O)oc2c1ccc1oc(C#N)c(C)c12
5. COc1cccc2c(=O)c3c(sc12)c(N1CCNCC1)nc1ccccc13
6. CCNc1nnnn1CC
7. CNc1cc2nc3cc(NC)c(C)cc3cc2cc1C

result:
[76, 11.1, 62.8, 107, -52.2, 111, 18.9]

For every record below, what is its growth?
1. C/C=C(\C)C(C(=O)NC1CCCCC1)N(C(=O)C1CCc2cc(F)ccc2O1)c1ccc(Cl)cc1 (configuration not stated)
2. Nc1ncncc1-c1ccc(F)cc1
3. Cc1ccc(S(=O)(=O)Nc2cccc(Cn3c(=O)[nH]c4ccc(Oc5ncccn5)cc4c3=O)c2)cc1

result:
97.8
103
65.3

For every record below, what is its growth?
1. CS(=O)(=O)Nc1ccc(Nc2c3ccccc3nc3cc([N+](=O)[O-])ccc23)cc1
2. O=C(Nc1cc(Cl)ccc1O)c1ccc(Nc2ccnc(C(F)(F)F)c2)cc1

result:
[-8.01, -11]
